SYSTEM: D816V Kit (Homo sapiens, UniProt P10721, D816V)
Sequence (P10721 26-976 D816V): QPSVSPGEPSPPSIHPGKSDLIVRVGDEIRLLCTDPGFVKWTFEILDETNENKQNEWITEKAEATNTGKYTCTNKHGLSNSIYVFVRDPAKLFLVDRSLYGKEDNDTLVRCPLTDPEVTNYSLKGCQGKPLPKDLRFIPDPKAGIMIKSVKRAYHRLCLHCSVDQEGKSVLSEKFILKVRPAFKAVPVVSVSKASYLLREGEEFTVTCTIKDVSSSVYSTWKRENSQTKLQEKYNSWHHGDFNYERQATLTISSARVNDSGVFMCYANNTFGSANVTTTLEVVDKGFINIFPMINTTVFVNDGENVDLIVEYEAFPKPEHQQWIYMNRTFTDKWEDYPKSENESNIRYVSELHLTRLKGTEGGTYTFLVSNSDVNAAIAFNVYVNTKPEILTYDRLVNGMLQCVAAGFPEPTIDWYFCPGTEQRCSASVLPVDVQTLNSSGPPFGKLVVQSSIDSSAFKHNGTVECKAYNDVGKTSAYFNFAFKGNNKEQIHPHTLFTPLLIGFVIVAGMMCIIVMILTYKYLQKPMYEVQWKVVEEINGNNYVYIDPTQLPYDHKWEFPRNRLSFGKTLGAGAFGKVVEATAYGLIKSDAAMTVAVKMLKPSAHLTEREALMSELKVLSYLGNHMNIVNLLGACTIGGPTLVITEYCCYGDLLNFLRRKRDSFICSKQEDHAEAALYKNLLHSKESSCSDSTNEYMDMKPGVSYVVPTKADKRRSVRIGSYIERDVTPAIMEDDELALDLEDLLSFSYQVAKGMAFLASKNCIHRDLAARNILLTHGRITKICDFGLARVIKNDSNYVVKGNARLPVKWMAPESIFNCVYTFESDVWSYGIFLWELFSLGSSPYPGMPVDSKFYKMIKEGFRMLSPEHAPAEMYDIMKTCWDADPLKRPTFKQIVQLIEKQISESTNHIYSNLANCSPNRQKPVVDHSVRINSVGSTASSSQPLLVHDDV
PROTOCOL_DETAILS: Kit D816V assay at Km (Caliper electrophoretic mobility shift)
EXPERIMENTAL_CONTEXT: 15 uM ATP, 25 C, 90 minutes
MEASURED_PARAMETER: IC50

INSERT INTO assay_data (compound, system, reported_value) VALUES
  ('C[C@](N)(c1ccc(F)cc1)c1cnc(N2CCN(c3ncnc(Nc4ccc([C@@H](O)CO)cc4)n3)CC2)nc1', 'D816V Kit (Homo sapiens, UniProt P10721, D816V)', '< 1 nM'),
  ('Fc1cccc(F)c1Cc1cnc(N2CCN(c3ncnc(Nc4ccc5c(c4)CNCC5)n3)CC2)nc1', 'D816V Kit (Homo sapiens, UniProt P10721, D816V)', '1.01 to 10 nM'),
  ('c1ccc(Cc2cnc(N3CCN(c4ncnc(Nc5ccc6c(c5)CNCC6)n4)CC3)nc2)cc1', 'D816V Kit (Homo sapiens, UniProt P10721, D816V)', '< 1 nM'),
  ('CN(C)Cc1cccc(Nc2ncnc(N3CCN(c4ncc(Cc5ccccc5)cn4)CC3)n2)c1', 'D816V Kit (Homo sapiens, UniProt P10721, D816V)', '< 1 nM'),
  ('CN(C)S(=O)(=O)Cc1ccc(Nc2ncnc(N3CCN(c4ncc(Cc5ccccc5)cn4)CC3)n2)cc1', 'D816V Kit (Homo sapiens, UniProt P10721, D816V)', '1.01 to 10 nM'),
  ('C[C@H](O)CNc1ccc(Nc2ncnc(N3CCN(c4ncc(Cc5ccccc5)cn4)CC3)n2)cc1', 'D816V Kit (Homo sapiens, UniProt P10721, D816V)', '< 1 nM');

Now look at this entry.
IC50 in this record for C[C@@](O)(c1ccc(F)cc1)c1cnc(N2CCN(c3ncnc(Nc4cnn(C[C@@H]5CNCCO5)c4)n3)CC2)nc1 (single isomer, unassigned) : 1.01 to 10 nM

* * *

SYSTEM: D816V Kit (Homo sapiens, UniProt P10721, D816V)
PROTOCOL_DETAILS: Kit D816V assay at Km (Caliper electrophoretic mobility shift)
EXPERIMENTAL_CONTEXT: 15 uM ATP, 25 C, 90 minutes
pIC50: −log10 of the molar value.
MEASURED_PARAMETER: pIC50

INSERT INTO measurements (compound, reported_value) VALUES
  ('Fc1ccccc1Sc1cnc(N2CCN(c3ncnc(Nc4ccc(C5CNCCO5)cc4)n3)CC2)nc1 (stereo not drawn) [Compound 251]', '8.00 to 9.00');

Documented pIC50 of OCc1ccc(Nc2ncnc(N3CCN(c4ncc(Cc5ccccc5)cn4)CC3)n2)cc1 [Compound 16] : > 9.00

Reported pIC50 for CN1CCO[C@@H](Cn2cc(Nc3ncnc(N4CCN(c5ncc(Cc6ccccc6)cn5)CC4)n3)cn2)C1 [Compound 180] was > 9.00

compound c1ccc(Cc2cnc(N3CCN(c4ncnc(Nc5ccc(O[C@@H]6CCNC6)cc5)n4)CC3)nc2)cc1 [Compound 107] , pIC50 observed: > 9.00

compound c1ccc(Cc2cnc(N3CCN(c4ncnc(Nc5cnn(C[C@H]6COCCN6)c5)n4)CC3)nc2)cc1 [Compound 125] , pIC50 observed: > 9.00

Given item c1ccc(Cc2cnc(N3CCN(c4ncnc(Nc5cnn(CC6CCOCC6)c5)n4)CC3)nc2)cc1 [Compound 118] , the value recorded as its pIC50 is > 9.00

// pIC50 lookup, compound = Cc1c(Nc2ncnc(N3CCN(c4ncc(Cc5ccccc5F)cn4)CC3)n2)cnn1C[C@@H]1CNCCO1 [Compound 272] , result: > 9.00

* * *

SYSTEM: D816V Kit (Homo sapiens, UniProt P10721, D816V)
PROTOCOL_DETAILS: Kit D816V assay at Km (Caliper electrophoretic mobility shift)
EXPERIMENTAL_CONTEXT: 15 uM ATP, 25 C, 90 minutes
MEASURED_PARAMETER: IC50

Here's what some known entries look like.
INSERT INTO measurements (compound, reported_value) VALUES
  ('CC(C)(O)Cn1cc(Nc2ncnc(N3CCN(c4ncc(Cc5ccccc5)cn4)CC3)n2)cn1 [Compound 62]', '< 1 nM'),
  ('C(#CC1CC1)c1cnc(N2CCN(c3ncnc(Nc4cnn(C[C@@H]5CNCCO5)c4)n3)CC2)nc1 [Compound 63]', '> 100 nM'),
  ('c1ccc(OCc2cnc(N3CCN(c4ncnc(Nc5cnn(C[C@@H]6CNCCO6)c5)n4)CC3)nc2)cc1 [Compound 190]', '1.01 to 10 nM');

The recorded IC50 with D816V Kit (Homo sapiens, UniProt P10721, D816V) for C[C@@H]1CN(c2ncnc(Nc3ccc(N4CCOCC4)cc3)n2)CCN1c1ncc(Cc2ccccc2)cn1 [Compound 159] was 1.01 to 10 nM

Value sought: IC50, system D816V Kit (Homo sapiens, UniProt P10721, D816V), item Cc1c(Nc2ncnc(N3CCN(c4ncc(Cc5ccccc5)cn4)CC3)n2)cnn1C[C@@H]1CNCCO1 [Compound 185] . Result: 1.01 to 10 nM

D816V Kit (Homo sapiens, UniProt P10721, D816V) IC50 of Fc1ccccc1Sc1cnc(N2CCN(c3ncnc(Nc4cnn(C[C@@H]5CNCCO5)c4)n3)CC2)nc1 [Compound 255] is < 1 nM

Record Cc1cc(N2CCN(C)CC2)ccc1Nc1ncnc(N2CCN(c3ncc(Cc4ccccc4)cn3)CC2)n1 [Compound 212] ; system D816V Kit (Homo sapiens, UniProt P10721, D816V); IC50 = 1.01 to 10 nM

* * *

Quick list: IC50 per entry.
SYSTEM: Kit D816V (HMC1.2 cells, Kit V560G and D816V) (Homo sapiens, UniProt P10721, D816V/V560G)
Construct: endogenous in cells
Sequence (P10721 26-976 V560G/D816V): as the sequence (P10721 26-976 D816V) above, with V535G counted along it
PROTOCOL_DETAILS: HMC1.2 autophosphorylation assay (AlphaLISA, phospho-Y719 c-Kit)
EXPERIMENTAL_CONTEXT: Kit autophosphorylation at tyrosine 719, 90 minutes, read-out: Cellular Activity

Before answering, review these 5 worked examples.
INSERT INTO measurements (molecule, system, measured_parameter, reported_value) VALUES
  ('Fc1ccccc1Cc1cnc(N2CCN(c3ncnc(Nc4cnn(C[C@@H]5CNCCO5)c4)n3)CC2)cn1 [Compound 198]', 'Kit D816V (HMC1.2 cells, Kit V560G and D816V) (Homo sapiens, UniProt P10721, D816V/V560G)', 'IC50', '< 10 nM'),
  ('FC1(F)CN(Cc2cccc(Nc3ncnc(N4CCN(c5ncc(Cc6ccccc6)cn5)CC4)n3)c2)C1 [Compound 188]', 'Kit D816V (HMC1.2 cells, Kit V560G and D816V) (Homo sapiens, UniProt P10721, D816V/V560G)', 'IC50', '10 to 100 nM'),
  ('O=C1CCc2ccc(Nc3ncnc(N4CCN(c5ncc(Cc6ccccc6)cn5)CC4)n3)cc2N1 [Compound 68]', 'Kit D816V (HMC1.2 cells, Kit V560G and D816V) (Homo sapiens, UniProt P10721, D816V/V560G)', 'IC50', '10 to 100 nM'),
  ('Cn1cc(Nc2ncnc(N3CCN(c4ncc([C@@](C)(O)c5ccc(F)cc5)cn4)CC3)n2)cn1 (single isomer, unassigned) [Compound 38]', 'Kit D816V (HMC1.2 cells, Kit V560G and D816V) (Homo sapiens, UniProt P10721, D816V/V560G)', 'IC50', '10 to 100 nM'),
  ('CN1CCC[C@@H](Oc2ccc(Nc3ncnc(N4CCN(c5ncc(Cc6ccccc6)cn5)CC4)n3)cc2)C1 [Compound 216]', 'Kit D816V (HMC1.2 cells, Kit V560G and D816V) (Homo sapiens, UniProt P10721, D816V/V560G)', 'IC50', '< 10 nM');

Considering CC(C)N1CCc2ccc(Nc3ncnc(N4CCN(c5ncc(Cc6ccccc6)cn5)CC4)n3)cc2C1 [Compound 148] , its IC50 with Kit D816V (HMC1.2 cells, Kit V560G and D816V) (Homo sapiens, UniProt P10721, D816V/V560G) was recorded as 10 to 100 nM

I looked up Cc1c(Nc2ncnc(N3CCN(c4ncc(Sc5ccc(F)cc5)cn4)CC3)n2)cnn1C[C@H](C)O [Compound 151] and its IC50 for Kit D816V (HMC1.2 cells, Kit V560G and D816V) (Homo sapiens, UniProt P10721, D816V/V560G) was 10 to 100 nM

* * *

SYSTEM: Kit D816V (HMC1.2 cells, Kit V560G and D816V) (Homo sapiens, UniProt P10721, D816V/V560G)
Construct: endogenous in cells
PROTOCOL_DETAILS: HMC1.2 autophosphorylation assay (AlphaLISA, phospho-Y719 c-Kit)
EXPERIMENTAL_CONTEXT: Kit autophosphorylation at tyrosine 719, 90 minutes, read-out: Cellular Activity
pIC50: −log10 of the molar value.
Measured pIC50 by item

The cases that follow already have their pIC50 on record.
INSERT INTO assay_data (molecule, measured_parameter, reported_value) VALUES
  ('c1ccc(Nc2cnc(N3CCN(c4ncnc(Nc5cnn(C[C@@H]6CNCCO6)c5)n4)CC3)nc2)cc1', 'pIC50', '7.00 to 8.00'),
  ('OC[C@@H]1CCCN1c1ccc(Nc2ncnc(N3CCN(c4ncc(Cc5ccccc5)cn4)CC3)n2)cc1', 'pIC50', '7.00 to 8.00'),
  ('O[C@H]1CCN(c2ccc(Nc3ncnc(N4CCN(c5ncc(Cc6ccccc6)cn5)CC4)n3)cc2)C1', 'pIC50', '6.00 to 7.00'),
  ('COc1cccc(Cc2cnc(N3CCN(c4ncnc(Nc5cnn(C[C@@H]6CNCCO6)c5)n4)CC3)nc2)c1', 'pIC50', '7.00 to 8.00');

# molecule NS(=O)(=O)c1ccc(Nc2ncnc(N3CCN(c4ncc(Cc5ccccc5)cn4)CC3)n2)cc1 ; its pIC50 = 6.00 to 7.00

pIC50 in this record for CC(C)(O)Cn1cc(Nc2ncnc(N3CCN(c4ncc(C(C)(C)c5ccc(F)cc5)cn4)CC3)n2)cn1 : 7.00 to 8.00

Sourced from patent US9334263B2
